The reported measurements were obtained from patent US10221170B2.

TESTED SYSTEM: OX2 (Homo sapiens, UniProt O43614)
Sequence (O43614 whole entry): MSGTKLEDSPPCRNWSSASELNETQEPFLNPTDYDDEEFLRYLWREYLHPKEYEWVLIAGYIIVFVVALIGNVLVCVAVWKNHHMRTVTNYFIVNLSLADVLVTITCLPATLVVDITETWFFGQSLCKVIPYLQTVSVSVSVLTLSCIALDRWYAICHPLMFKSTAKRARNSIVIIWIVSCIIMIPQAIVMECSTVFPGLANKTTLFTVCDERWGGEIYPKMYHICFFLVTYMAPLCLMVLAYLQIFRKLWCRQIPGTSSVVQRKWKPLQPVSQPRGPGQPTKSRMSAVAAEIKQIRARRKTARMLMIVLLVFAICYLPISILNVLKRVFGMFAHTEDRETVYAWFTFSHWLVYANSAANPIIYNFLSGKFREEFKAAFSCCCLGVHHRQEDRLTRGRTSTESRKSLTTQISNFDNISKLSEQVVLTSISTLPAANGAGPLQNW
PROTOCOL: Orexin receptor cell-based functional assay (FLIPR [Ca2+]i), OX2
CONDITION: CHO-OX2 cells, FLIPR calcium, EC90 of OXA
pIC50: −log10 of the molar value.
QUANTITY MEASURED: pIC50

• O=C(c1cc(F)ccc1-n1nccn1)N1CCC(F)(F)[C@H]1CNc1ncc(C(F)(F)F)cn1 [Example 5] = < 5.30
• N#Cc1ccc(-n2nccn2)c(C(=O)N2CCC(F)(F)[C@H]2CNc2ncc(C(F)(F)F)cn2)c1 [Example 56] = < 5.30
• Cc1ccc(C(=O)N2CCC(F)(F)[C@H]2CNc2ncc(C(F)(F)F)cn2)c(-n2nccn2)c1F [Example 8] = < 5.30
• O=C(c1c(F)cccc1-n1nccn1)N1CCC(F)(F)[C@H]1CNc1ncc(C(F)(F)F)cn1 [Example 57] = < 5.30
• O=C(c1cc(F)c(F)cc1-n1nccn1)N1CCC(F)(F)[C@H]1CNc1ncc(C(F)(F)F)cn1 [Example 51] = 6.08
• Cc1cc(C)c(-n2nccn2)c(C(=O)N2CCC(F)(F)[C@H]2CNc2ncc(C(F)(F)F)cn2)c1 [Example 60] = < 5.30
• O=C(c1c(-n2nccn2)ccc(F)c1F)N1CCC(F)(F)[C@H]1CNc1ncc(C(F)(F)F)cn1 [Example 52] = < 5.30

---

TESTED SYSTEM: OX1 (Homo sapiens, UniProt O43613)
Sequence (O43613 1-425): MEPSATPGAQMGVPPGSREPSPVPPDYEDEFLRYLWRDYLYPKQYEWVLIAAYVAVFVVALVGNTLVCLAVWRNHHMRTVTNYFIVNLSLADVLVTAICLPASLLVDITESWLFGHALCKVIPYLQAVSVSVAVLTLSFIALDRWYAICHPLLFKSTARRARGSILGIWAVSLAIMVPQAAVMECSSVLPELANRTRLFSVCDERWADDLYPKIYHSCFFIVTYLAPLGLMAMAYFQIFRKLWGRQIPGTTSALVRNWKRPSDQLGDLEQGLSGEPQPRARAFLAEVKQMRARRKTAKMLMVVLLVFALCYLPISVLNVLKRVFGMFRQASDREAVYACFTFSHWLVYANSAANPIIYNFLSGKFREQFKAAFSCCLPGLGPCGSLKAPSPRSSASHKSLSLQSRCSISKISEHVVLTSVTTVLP
PROTOCOL: Orexin receptor cell-based functional assay (FLIPR [Ca2+]i), OX1
CONDITION: CHO-OX1 cells, FLIPR calcium, EC90 of OXA
pIC50: −log10 of the molar value.
Respond with rule met for pIC50 values of 8 and above, rule not met for values below.

* O=C(c1ccc(F)c(F)c1-n1nccn1)N1CCC(F)(F)[C@H]1CNc1ncc(C(F)(F)F)cn1 [Example 59] | rule not met
* O=C(c1cc(F)ccc1-n1nccn1)N1CCC(F)(F)[C@H]1COc1ccc(C(F)(F)F)cn1 [Example 74] | rule not met
* O=C(c1cc(Cl)ccc1-n1nccn1)N1CCC(F)(F)[C@H]1CNc1ncc(C(F)(F)F)cn1 [Example 54] | rule met
* Cc1ccc(C(=O)N2CCC(F)(F)[C@H]2CNc2ncc(Cl)cn2)c(-n2nccn2)c1F [Example 68] | rule not met
* O=C(c1c(F)cccc1-n1nccn1)N1CCC(F)(F)[C@H]1CNc1ncc(C(F)(F)F)cn1 [Example 57] | rule met
